B1: ZNF207 (parent)
chain: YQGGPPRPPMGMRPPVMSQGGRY

# Variants of: B1
# ASSAY_PROTOCOL: protein stability index of a GFP-peptide fusion (GPS, HEK-293T) (PSI 1-6); higher = more stable;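 also: lentivirally expressed fusions sorted by FACS into six bins by GFP to DsRed ratio, PSI derived from sequencing read proportions per bin multiplied by bin number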
# CONDITION_SUMMARY: c terminus: native
OUTCOME_MEASURE: protein stability index

>>> readout_value("R13S")
1.96
>>> readout_value("P9W")
4.64
>>> readout_value("S18W")
2.56
>>> readout_value("R22D")
1.89
>>> readout_value("M17G")
2.42
>>> readout_value("G21C")
2.24
>>> readout_value("Q19T")
2.39
>>> readout_value("Y23E")
2.37
>>> readout_value("P6S")
2.45
>>> readout_value("Y23W")
3.51
>>> readout_value("Y23A")
1.98
>>> readout_value("R7L")
1.7
>>> readout_value("Y1Q")
3.65
>>> readout_value("R7S")
2.98
>>> readout_value("M17D")
2.86
>>> readout_value("P8I")
2.2
>>> readout_value("G4I")
2.34
>>> readout_value("G20F")
1.88
>>> readout_value("G21F")
1.72
>>> readout_value("G3Q")
2.32
>>> readout_value("P5I")
1.71
>>> readout_value("P6G")
2.07
>>> readout_value("G4L")
1.5
>>> readout_value("V16W")
1.75
>>> readout_value("R7V")
1.66
>>> readout_value("P14K")
1.43
>>> readout_value("P15D")
2.27
>>> readout_value("P5T")
3.09
>>> readout_value("S18L")
2.28
>>> readout_value("M17K")
2.85
>>> readout_value("G21H")
1.77
>>> readout_value("G4M")
1.46
